# credit: paper PMC5892938

- ASSAY TARGET: GST-SBP-SLBP (stem-loop binding protein) (Homo sapiens, UniProt Q14493 1-270)
- PROTOCOL: targeted RNA Bind-n-Seq; RBNS binding buffer: 25 mM Tris pH 7.5, 150 mM KCl, 3 mM MgCl2, 0.1% Tween, 0.5 mg/mL BSA, 1 mM DTT; 27 nM protein, 750 pM RNA pool; temperature not stated; high values mean tight binding
- CONDITION NOTES: protein: recombinant; tags: N-terminal GST and SBP (pGEX6P1-SBP)
OBSERVED PROPERTY: binding signal (log2 fold change)
Return type: number; implicit unit log2 fold change.

// known answers, use as guide
- BINDER: "consensus (structured_RNA) RNA: GGUCACGUCUCAAUCAACUCCCAAAGGCCUUUUUAAAGGCCACCCAUCAACAGCUCGCAGUCAAG"
  U: "log2 fold change"
  binding signal: 3.68
- BINDER: "consensus (structured_RNA) RNA: GGUCACGUCUCAAUCAACUCCCAAAGGCUCUUCUUAGAGCCACCCAUCAACAGCUCGCAGUCAAG"
  U: "log2 fold change"
  binding signal: 3.11
- BINDER: "consensus (structured_RNA) RNA: GGUCACGUCUCAAUCAACUCCCAAAGGUUCUUUUAAGAACCACCCAUCAACAGCUCGCAGUCAAG"
  U: "log2 fold change"
  binding signal: 3.2

Now look at this one.
## Input Given the entry consensus (structured_RNA) RNA: GGUCACGUCUCAAUCAACUCCCAAAGGUUUUUCUGAAAACCACCCAUCAACAGCUCGCAGUCAAG , report its measured binding signal.
## Output 2.15
